Source: PubChem BioAssay AID2315

# inhibition listing for each entry below
test: A qHTS for Small Molecule Inhibitors of Shiga Toxin; conditions: Vero cells, Shiga toxin protein synthesis inhibition reporter; at 38.7 µM, stronger effect = higher value; note: 0% is about no effect
Among all 290,000 compounds or so, about 27,000 (9.3%) were called active. Shown is part of a subset that was picked to be rich in actives.
measured.metric: inhibition (%)

> print(dat)
                                    compound  numeric.readout
 1  CN1CCN(Cc2nc3cc(NC(=O)COc4ccc([N+](=O)[O-])cc4)ccc3n2C)CC1            -2.13
 2  COC(=O)c1c(NC(=O)C(=O)N2CCCCC2)sc2c1CC(C)(C)OC2            -9.37
 3  Cc1ccc(C)c(S(=O)(=O)N2CCN(C(=O)Nc3ccccc3)CC2)c1             17.4
 4  O=C(Nc1ccccc1)C1CCN(C(=O)c2ccc(Br)cc2)CC1             6.29
 5   Cc1c(C(N)=O)sc2ncn(CCOc3ccccc3)c(=O)c12             59.8
 6        CCOc1c(CNCc2ccc(C(=O)O)cc2)cccc1OC             11.6
 7  COC(CNC(=O)c1ccc2c(c1)ncn2-c1cc(C)cc(C)c1)OC             4.27
 8  O=C(CN1C(=O)COc2ccc(Cl)cc21)Nc1ccc(N2CCOCC2)cc1            -16.6
 9     O=[N+]([O-])c1ccccc1/C=C/CN1CCC(O)CC1            -7.66
10  CCN1C(=O)/C(=c2\s/c(=C3\Sc4ccccc4N3C)c(=O)n2C)N(C)C1=S             40.9
11  COc1ccc(COC(=O)N/N=C(\C)CC(=O)Nc2ccc(Cl)cc2)cc1            -3.95
12      C/[N+]([O-])=C\c1ccc([N+](=O)[O-])o1            -7.77
13  COc1ccc(-c2cc(=O)oc3cc(OC(C)C(=O)NCC4CCC(C(=O)O)CC4)ccc23)cc1 (configuration not stated)            -4.72
14  CCOC(=O)C(C)n1cnc2sc(C)c(C)c2c1=O (configuration not stated)             17.6
15  Cc1c(C(=O)NCCN(C)C)oc2ccc(S(=O)(=O)N3CCCC3)cc12            -2.78
16    Cc1cccc(OC(=O)c2sc3ncn(C)c(=O)c3c2C)c1             67.1
17      CC(C)c1ccc(Cc2nnc(NCCCO)[nH]c2=O)cc1            -6.37
18  COc1ccc(/C=C(\NC(=O)c2ccccc2)C(=O)NCCN2CCOCC2)cc1OC             1.37
19  COc1ccc(CN2CCC(n3nccc3NC(=O)CCCc3ccccc3)CC2)cc1C            -2.11
20  Cc1ccc(NC(=O)c2ccn(C(=O)Nc3ccccc3)n2)c(C)c1             92.2
21  CN(C)CCN(Cc1ccccc1)S(=O)(=O)c1csc(C(N)=O)c1            -1.58
22  O=C(Nc1ncc2c(n1)CC(c1ccco1)CC2=O)c1ccc(Cl)cc1 (configuration not stated)              1.6
